Target system: EGFR (Homo sapiens, UniProt P00533)
Sequence (P00533 25-1210): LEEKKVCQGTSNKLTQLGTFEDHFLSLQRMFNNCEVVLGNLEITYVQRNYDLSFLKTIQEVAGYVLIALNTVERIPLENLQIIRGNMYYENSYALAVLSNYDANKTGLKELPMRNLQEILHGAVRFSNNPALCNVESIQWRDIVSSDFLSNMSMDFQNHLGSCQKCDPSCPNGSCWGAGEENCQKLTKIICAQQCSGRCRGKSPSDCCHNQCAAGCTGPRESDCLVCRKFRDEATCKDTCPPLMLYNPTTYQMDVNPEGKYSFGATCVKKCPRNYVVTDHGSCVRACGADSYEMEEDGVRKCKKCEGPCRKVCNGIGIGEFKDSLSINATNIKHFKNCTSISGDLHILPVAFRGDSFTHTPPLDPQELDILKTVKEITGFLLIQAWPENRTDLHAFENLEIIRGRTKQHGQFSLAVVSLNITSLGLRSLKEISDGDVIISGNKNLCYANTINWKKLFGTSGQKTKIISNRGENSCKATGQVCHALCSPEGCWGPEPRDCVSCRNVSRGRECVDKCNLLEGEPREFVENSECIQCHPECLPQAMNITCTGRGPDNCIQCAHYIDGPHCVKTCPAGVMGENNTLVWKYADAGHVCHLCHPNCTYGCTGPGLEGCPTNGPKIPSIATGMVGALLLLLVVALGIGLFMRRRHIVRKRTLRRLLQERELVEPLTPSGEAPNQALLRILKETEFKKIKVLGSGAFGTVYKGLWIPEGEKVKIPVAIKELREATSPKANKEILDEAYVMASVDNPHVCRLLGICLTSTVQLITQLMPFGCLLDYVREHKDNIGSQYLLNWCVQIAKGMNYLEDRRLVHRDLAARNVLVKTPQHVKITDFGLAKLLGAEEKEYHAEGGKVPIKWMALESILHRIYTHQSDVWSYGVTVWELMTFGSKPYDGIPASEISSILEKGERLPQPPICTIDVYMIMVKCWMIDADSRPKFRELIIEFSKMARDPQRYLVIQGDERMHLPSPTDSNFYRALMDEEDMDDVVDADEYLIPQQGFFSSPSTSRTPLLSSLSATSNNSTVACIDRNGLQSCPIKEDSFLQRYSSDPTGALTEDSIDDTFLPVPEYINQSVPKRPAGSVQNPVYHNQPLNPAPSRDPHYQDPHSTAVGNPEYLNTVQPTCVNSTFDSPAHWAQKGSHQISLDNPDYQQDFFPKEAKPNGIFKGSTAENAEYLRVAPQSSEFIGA
Measurement description: QuickScout ELISA kinase panel
Condition: Table 3
Property name: pEC50
For clarity, pEC50 is expressed as the negative log10 of concentration in mol/L.

pEC50 of Cc1nc(Nc2ncc(C(=O)Nc3c(C)cccc3Cl)s2)cc(N2CCN(CC[18F])CC2)n1 [[^18F]-5] on EGFR (Homo sapiens, UniProt P00533)?
6.57

----------
Target system: SRC (Homo sapiens)
Measurement description: biochemical
Property name: IC50

Give its IC50 value. Item: Cc1nc(Nc2ncc(C(=O)Nc3c(C)cccc3Cl)s2)cc(N2CCN(CCF)CC2)n1 [Compound 5]
< 2 nM

----------
Test system: K562 cells
Measurement description: Cellular proliferation, [3H]thymidine uptake
Assay type: cell-based
Condition: Homo sapiens, K562, read-out: IC50, K562 cells proliferation
Property name: pIC50
pIC50 field: float, defined as -log10 of concentration (mol/L).

Please report the recorded pIC50 for Cc1nc(Nc2ncc(C(=O)Nc3c(C)cccc3Cl)s2)cc(N2CCN(CCF)CC2)n1 .
8.96

----------
Target system: SRC (Homo sapiens, UniProt P12931)
Sequence (P12931 whole entry): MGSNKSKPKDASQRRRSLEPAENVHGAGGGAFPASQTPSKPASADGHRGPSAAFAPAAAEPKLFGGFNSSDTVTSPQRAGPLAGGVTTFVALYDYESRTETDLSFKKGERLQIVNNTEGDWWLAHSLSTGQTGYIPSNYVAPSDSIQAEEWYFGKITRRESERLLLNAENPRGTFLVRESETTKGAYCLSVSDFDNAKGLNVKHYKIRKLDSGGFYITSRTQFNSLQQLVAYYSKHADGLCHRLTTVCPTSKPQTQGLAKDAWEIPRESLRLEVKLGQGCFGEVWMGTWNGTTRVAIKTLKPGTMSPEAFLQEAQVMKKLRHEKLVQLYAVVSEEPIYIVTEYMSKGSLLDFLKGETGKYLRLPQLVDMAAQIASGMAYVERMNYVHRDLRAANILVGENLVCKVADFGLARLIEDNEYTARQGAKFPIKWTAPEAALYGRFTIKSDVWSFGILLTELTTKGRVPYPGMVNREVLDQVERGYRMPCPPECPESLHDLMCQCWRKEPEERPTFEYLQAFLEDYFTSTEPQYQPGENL
Format: biochemical
Condition: read-out: IC50, Src protein
Property name: IC50 (nM)
Please state the figure in nM; there is no need to write the unit.

What measured IC50 goes with Cc1nc(Nc2ncc(C(=O)Nc3c(C)cccc3Cl)s2)cc(N2CCN(CCF)CC2)n1 ?
3.5

----------
Target system: ABL (Homo sapiens, UniProt P00519)
Sequence (P00519 whole entry): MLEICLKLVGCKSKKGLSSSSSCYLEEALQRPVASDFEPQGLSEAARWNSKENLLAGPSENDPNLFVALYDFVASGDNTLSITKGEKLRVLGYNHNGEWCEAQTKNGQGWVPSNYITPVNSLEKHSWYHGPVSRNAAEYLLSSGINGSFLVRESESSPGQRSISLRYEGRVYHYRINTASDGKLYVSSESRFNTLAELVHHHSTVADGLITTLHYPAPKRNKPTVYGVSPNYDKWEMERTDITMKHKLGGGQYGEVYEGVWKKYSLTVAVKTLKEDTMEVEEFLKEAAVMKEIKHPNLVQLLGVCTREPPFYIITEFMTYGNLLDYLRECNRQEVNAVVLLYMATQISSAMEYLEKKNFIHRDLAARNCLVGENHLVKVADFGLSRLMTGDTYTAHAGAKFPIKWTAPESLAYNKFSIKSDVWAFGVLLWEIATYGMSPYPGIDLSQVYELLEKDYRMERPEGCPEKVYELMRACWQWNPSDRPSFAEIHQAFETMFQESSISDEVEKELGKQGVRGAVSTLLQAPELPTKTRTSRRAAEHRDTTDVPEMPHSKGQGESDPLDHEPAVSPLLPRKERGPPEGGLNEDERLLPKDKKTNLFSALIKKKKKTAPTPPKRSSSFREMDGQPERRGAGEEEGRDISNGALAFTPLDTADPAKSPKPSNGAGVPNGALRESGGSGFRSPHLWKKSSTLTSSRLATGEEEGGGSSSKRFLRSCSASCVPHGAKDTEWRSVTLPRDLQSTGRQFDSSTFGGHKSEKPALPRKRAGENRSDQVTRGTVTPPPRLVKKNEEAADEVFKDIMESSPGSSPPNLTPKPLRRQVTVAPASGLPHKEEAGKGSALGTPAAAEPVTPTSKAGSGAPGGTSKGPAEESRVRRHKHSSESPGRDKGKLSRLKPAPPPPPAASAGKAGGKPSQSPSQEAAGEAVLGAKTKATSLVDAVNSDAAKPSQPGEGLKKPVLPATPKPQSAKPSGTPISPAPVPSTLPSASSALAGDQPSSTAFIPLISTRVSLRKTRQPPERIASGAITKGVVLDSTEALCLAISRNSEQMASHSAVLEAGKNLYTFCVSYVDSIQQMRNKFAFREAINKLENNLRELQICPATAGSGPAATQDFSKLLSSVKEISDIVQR
Assay type: biochemical
Set-up: purchased Invitrogen
Condition: mean of three experiments; read-out: IC50, Abl protein
Property name: pIC50
Scale for pIC50: -log10 of concentration given in mol/L; no unit attached.

Recall the recorded pIC50 for Cc1nc(Nc2ncc(C(=O)Nc3c(C)cccc3Cl)s2)cc(N2CCN(CCF)CC2)n1 with ABL (Homo sapiens, UniProt P00519) and state it.
8.04

----------
Target system: EphB4 (Homo sapiens, UniProt P54760)
Measurement description: QuickScout ELISA kinase panel
Condition: Table 3
Property name: EC50
Respond with a number, then the unit of measure.

Could you tell me which EC50 is on file for Cc1nc(Nc2ncc(C(=O)Nc3c(C)cccc3Cl)s2)cc(N2CCN(CC[18F])CC2)n1 [[^18F]-5] ?
3.1 nM

----------
Target system: ABL (Homo sapiens)
Measurement description: QuickScout ELISA kinase panel
Format: biochemical
Design: purchased Carna Biosciences (QuickScout service)
pIC50: −log10 of the molar value.
Property name: pIC50

pIC50 for Cc1nc(Nc2ncc(C(=O)Nc3c(C)cccc3Cl)s2)cc(N2CCN(CCF)CC2)n1 ?
> 8.70

----------
Target system: PDGFR— (Homo sapiens, UniProt P16234)
Measurement description: QuickScout ELISA kinase panel
Condition: Table 3
Property name: EC50 (nM)
Could you give me the number in nM? Just the number is fine.

State the recorded EC50 for this entry: Cc1nc(Nc2ncc(C(=O)Nc3c(C)cccc3Cl)s2)cc(N2CCN(CC[18F])CC2)n1 [[^18F]-5]
16

----------
Target system: FGFR1 (Homo sapiens, UniProt P11362)
Sequence (P11362 22-822): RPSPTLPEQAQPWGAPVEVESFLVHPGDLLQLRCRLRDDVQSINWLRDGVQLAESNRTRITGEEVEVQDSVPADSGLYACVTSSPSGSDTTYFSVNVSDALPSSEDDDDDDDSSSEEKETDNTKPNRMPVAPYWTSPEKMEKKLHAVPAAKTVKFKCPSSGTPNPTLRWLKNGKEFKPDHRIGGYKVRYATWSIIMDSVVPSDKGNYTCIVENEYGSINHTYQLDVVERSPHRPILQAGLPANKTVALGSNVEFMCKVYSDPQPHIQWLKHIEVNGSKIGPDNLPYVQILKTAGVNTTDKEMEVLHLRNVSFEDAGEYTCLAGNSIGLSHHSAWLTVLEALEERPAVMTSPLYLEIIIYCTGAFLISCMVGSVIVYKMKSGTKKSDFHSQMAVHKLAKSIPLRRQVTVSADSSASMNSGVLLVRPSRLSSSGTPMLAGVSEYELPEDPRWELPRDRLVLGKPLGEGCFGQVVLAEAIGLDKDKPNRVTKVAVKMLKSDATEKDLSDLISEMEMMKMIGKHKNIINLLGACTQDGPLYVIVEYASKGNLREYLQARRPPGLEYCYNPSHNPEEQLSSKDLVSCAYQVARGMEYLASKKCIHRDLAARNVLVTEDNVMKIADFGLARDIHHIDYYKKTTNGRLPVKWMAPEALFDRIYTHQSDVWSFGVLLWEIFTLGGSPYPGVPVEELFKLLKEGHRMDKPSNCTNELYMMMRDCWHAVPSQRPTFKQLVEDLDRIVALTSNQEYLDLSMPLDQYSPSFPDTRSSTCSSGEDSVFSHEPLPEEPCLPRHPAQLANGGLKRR
Measurement description: QuickScout ELISA kinase panel
Condition: Table 3
Property name: EC50
Note: state the figure and append the unit.

Reported EC50 for Cc1nc(Nc2ncc(C(=O)Nc3c(C)cccc3Cl)s2)cc(N2CCN(CC[18F])CC2)n1 [[^18F]-5] : what is it?
390 nM

----------
Target system: ABL (Homo sapiens, UniProt P00519)
Measurement description: QuickScout ELISA kinase panel
Format: biochemical
Set-up: purchased Carna Biosciences (QuickScout service)
Condition: Table 3
Property name: pEC50
Please note pEC50 is a logarithmic value: minus log10 of concentration in mol/L. Answer with that number alone.

Look up pEC50 for this compound: Cc1nc(Nc2ncc(C(=O)Nc3c(C)cccc3Cl)s2)cc(N2CCN(CC[18F])CC2)n1 [[^18F]-5]
9.22

----------
Target system: SRC (Homo sapiens)
Measurement description: biochemical
Property name: pEC50
Conceptually, pEC50 converts a concentration in mol/L into minus its log10.

I'm curious: which pEC50 was measured for Cc1nc(Nc2ncc(C(=O)Nc3c(C)cccc3Cl)s2)cc(N2CCN(CC[18F])CC2)n1 [[^18F]-5] tested on SRC (Homo sapiens)?
8.59

----------
Target system: TEC (Homo sapiens, UniProt P42680)
Sequence (P42680 whole entry): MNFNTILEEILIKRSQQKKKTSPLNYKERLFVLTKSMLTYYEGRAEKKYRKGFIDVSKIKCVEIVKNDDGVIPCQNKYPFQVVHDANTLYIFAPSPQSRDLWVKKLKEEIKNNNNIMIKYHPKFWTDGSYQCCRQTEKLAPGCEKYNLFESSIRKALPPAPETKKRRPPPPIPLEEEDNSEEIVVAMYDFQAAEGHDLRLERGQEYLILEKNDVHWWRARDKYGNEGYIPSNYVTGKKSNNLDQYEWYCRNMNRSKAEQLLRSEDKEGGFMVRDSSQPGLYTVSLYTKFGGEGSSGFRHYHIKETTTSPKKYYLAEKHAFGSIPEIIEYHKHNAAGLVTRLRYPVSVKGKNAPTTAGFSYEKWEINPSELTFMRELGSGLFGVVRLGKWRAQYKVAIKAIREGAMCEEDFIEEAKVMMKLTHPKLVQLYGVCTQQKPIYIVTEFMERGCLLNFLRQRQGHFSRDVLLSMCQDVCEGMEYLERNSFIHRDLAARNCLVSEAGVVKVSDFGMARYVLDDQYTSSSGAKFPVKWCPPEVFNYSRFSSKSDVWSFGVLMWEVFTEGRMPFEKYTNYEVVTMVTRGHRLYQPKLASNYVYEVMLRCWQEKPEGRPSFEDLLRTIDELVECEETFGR
Measurement description: QuickScout ELISA kinase panel
Condition: Table 3
Property name: EC50 (nM)
Number only, in nM; omit the unit.

EC50 lookup needed for Cc1nc(Nc2ncc(C(=O)Nc3c(C)cccc3Cl)s2)cc(N2CCN(CC[18F])CC2)n1 [[^18F]-5] , thanks.
1.9

----------
Target system: UniProtKB P41240
Sequence (P41240 whole entry): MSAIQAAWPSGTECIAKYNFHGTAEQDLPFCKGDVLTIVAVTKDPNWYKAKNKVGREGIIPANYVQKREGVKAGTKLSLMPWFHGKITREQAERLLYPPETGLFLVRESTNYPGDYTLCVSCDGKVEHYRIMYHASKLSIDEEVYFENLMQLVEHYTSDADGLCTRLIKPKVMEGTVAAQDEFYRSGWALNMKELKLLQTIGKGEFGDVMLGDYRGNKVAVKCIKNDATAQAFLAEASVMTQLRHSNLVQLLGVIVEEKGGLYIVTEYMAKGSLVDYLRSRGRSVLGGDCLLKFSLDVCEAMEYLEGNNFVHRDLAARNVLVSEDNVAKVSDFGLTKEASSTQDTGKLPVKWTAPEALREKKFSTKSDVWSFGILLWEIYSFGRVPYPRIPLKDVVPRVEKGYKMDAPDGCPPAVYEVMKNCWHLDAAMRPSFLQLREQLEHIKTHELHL
Measurement description: QuickScout ELISA kinase panel
Condition: Table 3
Description: . […] An ELISA-based assay was used in which the phosphorylation of an oligopeptide substrate was detected by an HRP-conjugated anti-p-Tyr (PY20) probe. […]. The data appears in Table 2 in Example 3.
Property name: EC50 (nM)
Number in nM, nothing else.

Fill in: EC50 of Cc1nc(Nc2ncc(C(=O)Nc3c(C)cccc3Cl)s2)cc(N2CCN(CC[18F])CC2)n1 [[^18F]-5] is ___
5
